- System: MS2 coat protein
- procedureDetails: apparent KD of MS2 coat protein; designed switch direction (-1 OFF switch, 1 ON switch): -1; higher = weaker reporter binding
- conditionParameters: input ligand: FMN 200 uM
Assignment: determine reported apparent KD of MS2 coat protein for the given sequences.
Answers are plain numbers, in nM.

Use these answered entries as a reference point.
1. AACACGGGAGGAUAUGCGACAGGAAACAUGAGGAUCACCCAUGUGGAUGGUCGUACAAACGUAGAAGGCCCGCCCA [Eternabot (Original) Solution 1] (Eterna round: R97, puzzle: Exclusion 5)    12.9
2. UCCGUGUGAGGAUAUGCGAAUGACGAGUUACCUUGUCGCAAGCAGAAGGUACAUGAGGAUCACCCAUGUCCUAU [Eternabot (L1) Solution 61] (Eterna round: R97, puzzle: Exclusion 4)    27.8
3. AUCCAGGCAGGAUAUUGCCGGUUGCACAUGAGGAUCACCCAUGUACUCCUAGGUCGAUGGCAAGAAGGGCUAUCCA [Eternabot (Original) Solution 24] (Eterna round: R97, puzzle: Exclusion 5)    26.6
4. GGACAUAAAGUCAGGAUAUUAAGGCGAACAAGCGAUGAGAAGGGACAUGAGGAUCACCCAUGUGAUUCGCAUCA [Raerce] (Eterna round: R97, puzzle: Brourd's mod of Exclusion 4)    32.7
5. GCGCCAUCGUGAGAUGGCGUAUAUACAUGAGGAUCACCCAUGUAGGAUAUCGAUUGCUUUGCAGUCGAGAAGGGCAAGGUAUUU [JL ENG3 3.91] (Eterna round: R96, puzzle: Exclusion NG 3)    34

Give one value of apparent KD of MS2 coat protein per listed sequence.
1. AAUAGUCAAGUUAGGAUAUUGCACCAGUGAUGGACCAAGAAGGAACAUGAGGAUCACCCAUGUGAACUCACGAC [Eternabot (Original) Solution 3] (Eterna round: R97, puzzle: Brourd's mod of Exclusion 4)
2. GUGUGAAGUUAGGAUAUGAUCGGACAAGAGCCUUCAGAAGGGACCACAUGAGGAUCACCCAUGUUGUCGGUGGC [Eternabot (L1) Solution 41] (Eterna round: R97, puzzle: Exclusion 6)
3. GUCAUCACACAUGGGAUCAACAUGAGGAUCACCCAUGUUGCCAAGUUUUUUGCACGUCUUAUAAUACGUUUGAUGAG [Mod-Jxe] (Eterna round: R97, puzzle: Sensor, turn-off variant 1)
4. GCUGCACAUGUAGGAUAUCUGCACGUGUAGUGCAGAGAAGGACAUGAGGAUCACCCAUGUAGAUCAGCAGCAAUUAAUUUAAUU [ENG1/6-A2] (Eterna round: R96, puzzle: Exclusion NG 1)
5. GACAUGAGGAUCACCCAUGUAAGGGAUGAACUUCUGGGUAGCUAGGAUAUGGCUAUAAAGAUGGACCAGAAGGAGCGGACCCUA [Orlaveceat] (Eterna round: R96, puzzle: Exclusion NG 3)
6. AACGUGUAAGGAUAUCUGCUUAUGCUCGGCAAUGCACCGAUAGAGAAGGUACAUGAGGAUCACCCAUGUUCCAA [EX4 A.16] (Eterna round: R97, puzzle: Exclusion 4)
7. UAAUGUAUAUAGGAUAUCUAGCUGGAUACAGCUAGAGAAGGAUGUACAUGAGGAUCACCCAUGUAAAUCAGUGA [Ex6/14-B3] (Eterna round: R97, puzzle: Exclusion 6)

1. 344
2. 20.5
3. 31.7
4. 150
5. 48.7
6. 16.7
7. 206

Give one value of apparent KD of MS2 coat protein per listed sequence.
1. GUCAGCUCGUCAGGAUAUACAUCACUGCUUCGGCAGUGUAUUAAGAUCACAUGAGGAUCACCCAUGUAGAAGGGACGAGCUGAU [ENG2/2-B2] (Eterna round: R96, puzzle: Exclusion NG 2)
2. CCCGGGUCAGGAUAUGGGCCCGGGCCCGAAAGGGCCCGGGCCCAGAAGGGACAUGAGGAUCACCCAUGUCCGGG [-53.1, -50.9 kcal, 20% A] (Eterna round: R97, puzzle: Exclusion 4)
3. AAGAUACAUGAGGAUCACCCAUGUUAGGAUAUACGCAUGCAUGCAUGCAUGCAUGCAAGUAGAAGGAACCAUGC [Design #3] (Eterna round: R97, puzzle: Exclusion 1)
4. UCACGGGACUGAGGAUAUACAUUUAUUAUUUUAGUAGAAGGCAGAAAGUUAGUUUUUUCACUAUACAUGAGGAUCACCCAUGUU [JR_ExcNG1_Sub085] (Eterna round: R96, puzzle: Exclusion NG 1)
5. GGGUGCAGGCUGAGGUCCUACAUGAGGAUCACCCAUGUGGUCCGGUGACGUGAGUCACCGGACUUAGCUCGUCUUGU [salish99_S_TOV1_R5_009] (Eterna round: R97, puzzle: Sensor, turn-off variant 1)

322
26.7
29.2
21.2
82

So what's the measured apparent KD of MS2 coat protein for this one? AAGUUACAUGAGGAUCACCCAUGUGAGGAUAUGAGUCAGUCACGGUGACGUGGCUGACUCAGAAGGCACAAUGG [JL-ex1-4.41 salish99 mod] (Eterna round: R97, puzzle: Exclusion 1) 43
